studySystem: EPHB1 (UniProt P54762)
Sequence (P54762 whole entry, looked up): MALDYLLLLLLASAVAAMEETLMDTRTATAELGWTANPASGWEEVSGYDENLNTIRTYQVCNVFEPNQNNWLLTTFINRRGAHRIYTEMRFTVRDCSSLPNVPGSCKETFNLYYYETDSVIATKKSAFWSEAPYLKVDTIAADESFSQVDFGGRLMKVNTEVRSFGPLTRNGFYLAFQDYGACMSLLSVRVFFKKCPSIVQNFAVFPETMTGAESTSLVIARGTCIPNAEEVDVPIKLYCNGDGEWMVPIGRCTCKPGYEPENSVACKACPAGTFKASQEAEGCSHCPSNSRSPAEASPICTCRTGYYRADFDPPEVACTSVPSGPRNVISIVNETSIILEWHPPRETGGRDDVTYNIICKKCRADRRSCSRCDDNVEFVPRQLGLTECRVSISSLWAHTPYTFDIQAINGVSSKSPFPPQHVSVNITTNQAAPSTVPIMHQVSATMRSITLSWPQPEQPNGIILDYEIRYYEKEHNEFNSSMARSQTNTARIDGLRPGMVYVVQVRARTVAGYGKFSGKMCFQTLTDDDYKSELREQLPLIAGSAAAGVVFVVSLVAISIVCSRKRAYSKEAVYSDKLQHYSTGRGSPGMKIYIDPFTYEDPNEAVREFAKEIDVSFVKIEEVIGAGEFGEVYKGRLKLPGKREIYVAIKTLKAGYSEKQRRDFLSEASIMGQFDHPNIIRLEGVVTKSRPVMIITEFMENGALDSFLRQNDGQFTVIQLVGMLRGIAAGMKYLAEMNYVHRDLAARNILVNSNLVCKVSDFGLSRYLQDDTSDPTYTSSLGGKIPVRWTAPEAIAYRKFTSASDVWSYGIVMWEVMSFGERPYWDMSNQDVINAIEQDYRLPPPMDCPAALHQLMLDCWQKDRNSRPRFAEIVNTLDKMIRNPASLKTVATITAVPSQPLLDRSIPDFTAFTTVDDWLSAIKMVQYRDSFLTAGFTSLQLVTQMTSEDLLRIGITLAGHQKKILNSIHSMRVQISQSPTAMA
assayDetails: phosphorylation enrichment, bacterial display (enrichment ratio); higher = better substrate or ligand; peptides without Tyr show the background;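 also: 11-residue human phosphosite peptides and single-mutation variants displayed on the E. coli surface, counted by deep sequencing, each peptide's frequency after selection divided by its frequency in the unselected input library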;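 also: frequency after pTyr selection over input frequency; kinase dosed for 20-30% of maximal phosphorylation in three min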
Lab note: compare phosphorylation enrichment against 0.5. Equal or greater, write Satisfied. Smaller, write Not satisfied.

Use these answered entries as a reference point.
1) RNYDTYTAGLS [RHBDD1_Y264]
Satisfied
2) ISSLDYISKTK [VAV3_Y294]
Satisfied
3) RQEEEYKRFSE [SFSWAP_Y133_L136F]
Satisfied
4) CLAKMYYSAVE [CP_Y539_D544E]
Satisfied
5) EAGKVYLKAPM [CBFB_Y96]
Not satisfied

Is it the case that SRGRQYQELPR [KCNH2_Y1009] has phosphorylation enrichment reaching or exceeding 0.5?
Not satisfied

Item FSCLPYGRLAY [SLC52A2_Y305] with phosphorylation enrichment of 0.5 or above?
Satisfied

Would you say NFDRVYIFHLR [MYOF_Y1137_YF] shows phosphorylation enrichment at minimum 0.5?
Satisfied

Does the sequence VRFTEYETQVK [TARDBP_Y155] have recorded phosphorylation enrichment that is 0.5 or more?
Satisfied

Tell me whether phosphorylation enrichment is at least 0.5 here: CTTIHYNFTCN [TP53_Y234_M237T_YF]
Not satisfied
